Each recorded value in this set is attributed to paper PMC10709440.

Target: Drosophila OR85b (Drosophila melanogaster)
Construct: expressed in transfected cells
Sequence (Q9VHQ7 whole entry): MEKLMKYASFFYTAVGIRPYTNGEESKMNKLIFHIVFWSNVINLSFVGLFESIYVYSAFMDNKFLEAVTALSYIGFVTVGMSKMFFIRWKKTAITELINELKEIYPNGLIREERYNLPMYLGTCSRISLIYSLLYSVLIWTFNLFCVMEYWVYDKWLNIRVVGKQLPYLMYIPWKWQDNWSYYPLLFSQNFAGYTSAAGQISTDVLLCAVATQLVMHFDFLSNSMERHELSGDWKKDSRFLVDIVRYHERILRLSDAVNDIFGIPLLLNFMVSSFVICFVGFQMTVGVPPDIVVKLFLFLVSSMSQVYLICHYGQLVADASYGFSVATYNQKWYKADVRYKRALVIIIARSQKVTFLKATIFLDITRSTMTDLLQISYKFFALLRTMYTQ
Sequence (Q9VNB5 whole entry partner): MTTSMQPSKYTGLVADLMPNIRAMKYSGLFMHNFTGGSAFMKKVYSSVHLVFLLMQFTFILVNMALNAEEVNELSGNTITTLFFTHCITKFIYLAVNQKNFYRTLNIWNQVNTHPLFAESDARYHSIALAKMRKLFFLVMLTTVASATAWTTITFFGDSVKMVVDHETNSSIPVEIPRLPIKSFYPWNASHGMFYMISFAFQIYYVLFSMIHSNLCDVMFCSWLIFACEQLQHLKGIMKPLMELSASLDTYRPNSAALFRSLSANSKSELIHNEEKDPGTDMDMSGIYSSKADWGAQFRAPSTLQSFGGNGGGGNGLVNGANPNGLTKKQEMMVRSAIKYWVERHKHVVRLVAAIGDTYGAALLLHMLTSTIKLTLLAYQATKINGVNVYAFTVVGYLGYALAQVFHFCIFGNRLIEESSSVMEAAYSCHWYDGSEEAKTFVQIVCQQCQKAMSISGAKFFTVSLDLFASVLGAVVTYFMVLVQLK
Experiment: Calcium ion fluorescence (GCaMP6) assay, OR85b stable HEK293 cell line
Assay type: cell-based
Details: OR85b cell line; cc. 1 µM; VUAA1-normalized response, mean of biological replicates
reported-property: Average response

1) C=C(C)[C@H]1CC=C(C)CC1 [limonene] :: 0.07
2) COC(=O)c1ccccc1O [methyl salicylate] :: 0.00
3) CCCCCCCCC=O [nonanal] :: 0.00
4) CCCCCC(C)O (stereo not shown) [2-heptanol] :: 0.0455
5) CC/C=C\CCO [Z3-hexenol] :: 0.0533
6) CCCCOC(C)=O [butyl acetate] :: 0.00
7) O=Cc1ccccc1 [benzaldehyde] :: 0.06
8) CC(=O)OCCC(C)C [isopentyl acetate] :: 0.00
9) Cc1ccccc1 [toluene] :: 0.0843
10) CC1=CCC2CC1C2(C)C (stereo not drawn) [alpha-pinene] :: 0.03

// for each molecule below, give its Average response
1. C=C1CC[C@H]2O[C@]2(C)CC[C@@H]2[C@@H]1CC2(C)C [(-)-caryophyllene oxide]
2. CC(C)=CCC/C(C)=C/CC/C(C)=C/CO [e,e-farnesol]
3. C=CCc1ccc(O)c(OC)c1 [eugenol]

Result:
[0.00, 0.053, 0.00]
